Tested on: P-388
Test: Inhibition of cell growth by counting cells, P-388
Format: cell-based, mouse
Conditions: Mus musculus, P388, 72 h; three days of incubation; read-out: IC50 (molar) P-388
Protocol: 1°.—Inhibition of Cell Growth by Counting Cells. This form of the assay employs 24 well multidishes of 16 mm diameter (Bergeron, 1984; Schroeder, 1981). […] For quantifying the activity, after the incubation time, cells are trypsinized and counted in a Coulter Counter ZM. […]
Observed Property: IC50 (nM)
Number only, in nM; omit the unit.

[
  {
    "Compound": "COc1cc2c(cc1OC(=O)OCc1ccccc1)CCN[C@]21CS[C@@H]2c3c(OC(C)=O)c(C)c4c(c3[C@H](COC1=O)N1C2[C@H]2c3c(cc(C)c(OC)c3OC(=O)OCc3ccccc3)C[C@@H]([C@@H]1C#N)N2C)OCO4 (some centres unmarked) [Compound 28]",
    "Units Symbol": "nM",
    "Recorded Number": 9.62
  }
]

Q) // map C=CCOC(=O)Oc1cc2c(cc1OC)[C@@]1(CS[C@@H]3c4c(OC(C)=O)c(C)c5c(c4[C@H](COC1=O)N1C3[C@H]3c4c(cc(C)c(OC)c4OC(=O)OCC=C)C[C@@H]([C@@H]1C#N)N3C)OCO5)NCC2 (some centres unmarked) [Compound 26] to recorded IC50 (system: P-388)
A) 5.33
